System: T4 lymphocytes (CEM cell line)
protocol_details: Cell growth / toxicity control in uninfected T4 lymphocytes (CEM), XTT-formazan
Assay type: cell-based
assay_setup: read-out: IC50 (50% inhibitory concentration for cell growth); uninfected CEM cells, 6 days, XTT; approximate values; listed as Example 21
experimental_endpoint: pIC50
Note on pIC50: it is the negative log10 of concentration, concentration in mol/L.

[ask] So what's the measured pIC50 for this one? CNc1ccccc1S(=O)(=O)c1ccccc1[N+](=O)[O-]
[reply] 4.36

----------
Tested on: T4 lymphocytes (CEM cell line)
protocol_details: Cell growth / toxicity control in uninfected T4 lymphocytes (CEM), XTT-formazan
Assay type: cell-based
assay_setup: Homo sapiens, CCRF-CEM, dose 6.33 × 10^-6 Molar; read-out: Percent of Control, Uninfected
Source text: The NCI procedure is fully described, for example, in a bulletin provided by the National Institutes of Health, National Cancer Institute, Bethesda, Md. 20892, all of which is incorporated herein by reference. As related in the NCI bulletin, the procedure is based on O. W. Weislow et al., "New soluble-formazan assay for HIV-1 cytopathic effects: application to high flux screening of synthetic and natural products for AIDS-antiviral activity", J. Natl. Cancer Inst. […]
Measured activity at 6.33 µM, listed per entry for reference.
Supply the numeric figure in %, leaving out any unit text.

Consider the reported activity at 6.33 µM for these compounds:
compound	activity at 6.33 µM (%)
CNc1ccc(S(=O)(=O)c2ccccc2[N+](=O)[O-])cc1C [Compound 79]	98.2
CNc1ccc(Cl)cc1S(=O)(=O)c1ccccc1 [Compound 57]	89.6
CNc1ccc(S(=O)(=O)c2ccccc2[N+](=O)[O-])cc1Cl [Compound 77]	100
Cc1ccc(N(C)S(=O)(=O)c2ccccc2[N+](=O)[O-])cc1 [Compound 31]	91.1
CNc1ccc(Cl)cc1S(=O)(=O)c1ccccc1[N+](=O)[O-] [Compound 72]	101

[ask] Lab note: need activity at 6.33 µM with T4 lymphocytes (CEM cell line) for entry CN(c1ccccc1Cl)S(=O)(=O)c1ccccc1[N+](=O)[O-] [Compound 38] , please look it up.
[reply] 94.2

[ask] And for CNc1ccccc1S(=O)(=O)c1ccccc1Cl [Compound 82] ?
[reply] 84.2
